These entries and their values trace back to patent US9938269B2.

assay: Determination of the microsomal half-life, rat liver microsomes; settings: rat, liver microsomes, pH 7.4
Attribute measured: microsomal CLint at 0.5 μM

Cc1cc(-c2ccnc3c2C(=O)N(CCc2ccc4ccccc4n2)C3)n(C)n1 = < 100 µL/min/mg

For this molecule ( O=C1c2c(cccc2N2CCOCC2)CN1CCc1ccc2sccc2n1 ), measured microsomal CLint at 0.5 μM is 100 to 220 µL/min/mg

For this molecule ( O=C1c2c(-c3cccnc3)ccc(F)c2CN1CCc1cn2ccccc2n1 ), measured microsomal CLint at 0.5 μM is < 100 µL/min/mg

---

assay: Determination of the microsomal half-life, human liver microsomes; conditions: human, liver microsomes, pH 7.4
Structures can show the parent of a compound that is named as a salt.
Attribute measured: microsomal CLint at 0.5 μM

Example cases with answers are listed next.
NCc1ccc(-c2cccc3c2C(=O)N(CCc2ccc4ccccc4n2)C3)cc1 [Example 193] = < 100 µL/min/mg
COc1ccc(-c2ccnn2C)c2c1C(=O)N(CCc1cn3ccccc3n1)C2 [compound 464, trifluoroacetate] = < 100 µL/min/mg
O=C1c2c(N3CCC(C(F)F)C3)ccnc2CN1CCc1nc2ccccc2s1 (centres unmarked) [compound 385] = 100 to 220 µL/min/mg

For this molecule ( O=C1c2c(-c3cscn3)ccnc2CN1CCc1nc2ccccc2s1 [compound 436] ), measured microsomal CLint at 0.5 μM is < 100 µL/min/mg

For this molecule ( Cn1nccc1-c1cccc2c1C(=O)N(CCc1nc3ccccc3[nH]1)C2 [Example 313, trifluoroacetate] ), measured microsomal CLint at 0.5 μM is < 100 µL/min/mg

---

Reported values of microsomal CLint at 0.5 μM for individual entries
assay: Determination of the microsomal half-life, human liver microsomes; settings: human, liver microsomes, pH 7.4
Counter-ions that a name gives are not always drawn.

Example cases with answers are listed next.
Cn1c(CCN2Cc3cccc(-c4cccnc4)c3C2=O)nc2ccccc21 = > 220 µL/min/mg
Cc1ccc(CCN2Cc3nccc(-c4ccncc4)c3C2=O)nc1C [compound 474, trifluoroacetate] = 100 to 220 µL/min/mg
O=C1c2c(cccc2-c2ccc(C(F)(F)F)nc2)CN1CCc1ccc2ccccc2n1 = 100 to 220 µL/min/mg
COc1ccc(-c2cccnc2)c2c1CN(CCc1cn3ccccc3n1)C2=O [Example 218, trifluoroacetate] = < 100 µL/min/mg
O=C1c2c(cccc2-c2ccc3nn[nH]c3c2)CN1CCc1ccc2ccccc2n1 [Example 10, trifluoroacetate] = 100 to 220 µL/min/mg

Shift focus to the following entry.
For this compound ( Cc1ccc(-c2cccc3c2C(=O)N(CCc2ccc4ccccc4n2)C3)cn1 ), measured microsomal CLint at 0.5 μM is 100 to 220 µL/min/mg

---

test: Determination of the microsomal half-life, rat liver microsomes; conditions: rat, liver microsomes, pH 7.4
Structures can show the parent of a compound that is named as a salt.
Reported values of microsomal CLint at 0.5 μM for individual entries

O=C(O)C(F)(F)F.O=C1c2c(-c3ccnc(F)c3)ccnc2CN1CCc1nc2ccccc2s1 [compound 421, trifluoroacetate] = < 100 µL/min/mg
O=C1c2cccc(N3CCS(=O)(=O)CC3)c2C(=O)N1CCc1ccc2ccccc2n1 = > 220 µL/min/mg
O=C1c2c(cccc2-c2ccncc2)CN1CCc1ccc2sccc2n1 = 100 to 220 µL/min/mg
O=C1c2c(cccc2-c2cn[nH]c2)CN1CCc1cn2ccccc2n1 = 100 to 220 µL/min/mg

For this compound ( O=C1c2c(NC3COC3)ccnc2CN1CCc1nc2ccccc2s1 ), measured microsomal CLint at 0.5 μM is < 100 µL/min/mg

For this compound ( COc1ccc(-c2ccc(OC)c3c2CN(CCc2cn4ccccc4n2)C3=O)cc1 [compound 457, trifluoroacetate] ), measured microsomal CLint at 0.5 μM is 100 to 220 µL/min/mg

For this compound ( O=C1c2c(cccc2-c2cncnc2)CN1CCc1ccc2sccc2n1 ), measured microsomal CLint at 0.5 μM is 100 to 220 µL/min/mg

For this compound ( CC1(O)CCC(Nc2ccc(-c3cccc4c3C(=O)N(CCc3ccc5ccccc5n3)C4)cc2Cl)CC1 (stereo not drawn) [Example 155, hydrochloride] ), measured microsomal CLint at 0.5 μM is 100 to 220 µL/min/mg

For this compound ( Nc1ncc2cc(-c3cccc4c3C(=O)N(CCc3ccc5ccccc5n3)C4)ccc2n1 ), measured microsomal CLint at 0.5 μM is 100 to 220 µL/min/mg

For this compound ( O=C1c2c(cccc2N2C[C@@H]3C[C@H]2CN3)CN1CCc1ccc2ccccc2n1 ), measured microsomal CLint at 0.5 μM is > 220 µL/min/mg

For this compound ( Cn1nccc1-c1ccnc2c1C(=O)N(CCc1nc3ccccn3n1)C2 [Example 213, trifluoroacetate] ), measured microsomal CLint at 0.5 μM is < 100 µL/min/mg

For this compound ( O=C1c2c(cccc2N2CCNCC2)CN1CCc1ccc2ccccc2n1 ), measured microsomal CLint at 0.5 μM is 100 to 220 µL/min/mg

For this compound ( Cn1nccc1-c1ccnc2c1CN(CCc1ccc3ccccc3n1)C2=O [compound 459, trifluoroacetate] ), measured microsomal CLint at 0.5 μM is < 100 µL/min/mg

For this compound ( O=C1c2nccc(-c3cncnc3)c2CN1CCc1ccc2ccccc2n1 ), measured microsomal CLint at 0.5 μM is < 100 µL/min/mg

For this compound ( O=C(O)C1CCN(c2ccnc3c2C(=O)N(CCc2ccc4ccccc4n2)C3)CC1 ), measured microsomal CLint at 0.5 μM is < 100 µL/min/mg
